Give Cmax for every item shown.
ASSAY REMARKS: Cmax in Sprague-Dawley rat at 1 mg/kg, iv
Format: ADME, organism-based
Set-up: dose 1 mg/kg, route iv
REPORTED CONDITIONS: in vivo
Numbers only here, please. The scale is ng/mL.

Query (compound): CCOc1ccc(Cc2cc([C@@H]3O[C@H](CO)[C@@H](O)[C@H](O)[C@H]3O)ccc2Cl)cc1 ; field requested: Cmax
1300

Query (compound): OC[C@H]1O[C@@H](c2cc(Cc3ccc(C4CC4)cc3)c(Cl)c3c2CCO3)[C@H](O)[C@@H](O)[C@@H]1O ; field requested: Cmax
3300

Each recorded value in this set is attributed to ChEMBL document CHEMBL5143532.
